These entries and their values trace back to PubChem BioAssay (EPA / NIEHS).

- Read-out: Keratin 19 (KRT19), KRT19 (gene 3880)
- assay summary: LTEA_HepaRG_KRT19: Life Technologies and Expression Analysis (LTEA) Assay for Keratin 19 (KRT19) using HepaRG (AID 2283512)
- study conditions: mRNA level, 48 h; actives raise or lower the signal
Active and inactive are the calls of the source. Rule for the calls: active = hit-call score of the fitted dose curve at least 0.9, where 1 is the maximum; inactive = score below 0.9.
# output must be one of active, inactive

compound	group label
CN(C)c1nc(=O)n(C2CCCCC2)c(=O)n1C	inactive

For Cc1cc(O)ccc1Cl , which call appears in the assay record?
inactive

Assay outcome for CCCCCCCCOC(=O)c1ccccc1C(=O)OCCCCCCCC : what was it?
inactive

Could you kindly confirm the outcome this assay logged for c1ccc(-c2ccccc2)cc1 ?
inactive

Status in this test for O=C(N[C@H]1CN2CCC1CC2)c1cc2ccoc2cn1 ?
inactive

Please state the recorded outcome for this compound: O=C(NC(=O)c1c(F)cccc1F)Nc1cc(Cl)c(OC(F)(F)C(F)F)c(Cl)c1
inactive

For this compound, state the assay outcome: CCC(C)(c1ccc(O)cc1)c1ccc(O)cc1
inactive

Please indicate how the test categorized C=CC(N)=O .
inactive

For Cc1cc(-c2ccc(N)c(C)c2)ccc1N , what call appears in the results of this test?
active

Name the outcome recorded for Clc1ccc(C(c2ccccc2Cl)C(Cl)(Cl)Cl)cc1 (configuration not stated) in the assay.
active

Recorded call for Clc1ccc(C(Cl)(Cl)Cl)cc1 ?
inactive

Each compound tested received a call. Report the one for CCOP(=S)(OCC)SCSC(C)(C)C .
inactive

For COS(=O)(=O)OC , what call appears in the results of this test?
inactive

What is the recorded call for this compound in the test? Cc1ccc(O)c(C)c1
inactive
